Data provenance: ChEMBL document CHEMBL1132650

Molecular target: UniProtKB P35439
Experiment: Functional antagonism at the N-methyl-D-aspartate glutamate receptor 1 was demonstarted by the ability to inhibit the binding of the channel-blocking agent [3H](+)-MK-801
metricName: EC50 (nM)

P: O=C(O)c1nc2c(=O)[nH]c3ccc(Cl)cc3n2n1
Q: O=C(O)c1cc(O)c2c(Cl)cc(Cl)cc2n1
Would you kindly point out which of P and Q has the smaller EC50 figure? Pick one and reply with its label. Q
(Q: 330 nM, P: 32500 nM)

* * *

Biological target: Glutamate receptor ionotropic, AMPA (Rattus norvegicus, UniProt P19490+P19491+P19492+P19493)
Test: The compound was tested for its binding affinity towards AMPA receptor in rat cortical membranes using [3H]AMPA radioligand
Type: cell membranes
metricName: Ki (µM)

P: O=C(NO)c1nc2c(O)nc3cc(Cl)ccc3n2n1
Q: NNC(=O)c1nc2c(=O)[nH]c3cc(Cl)ccc3n2n1
Ki comparison. Which is larger, P or Q ? Reply briefly: the label of your chosen item. Q

* * *

Target: Glutamate receptor ionotropic, NMDA 1 (Rattus norvegicus)
Test: Binding affinity towards N-methyl-D-aspartate glutamate receptor 1 in rat cortical membranes using [3H]glycine as radioligand
Format: cell membranes
pKi: −log10 of the molar value.
metricName: pKi

Reference set (5 entries):
- smilesText: "O=C(O)c1nc2c(=O)[nH]c3ccccc3n2n1"
  pKi: 5.96
- smilesText: "O=C(O)c1nc2c(O)nc3ccc([N+](=O)[O-])cc3n2n1"
  pKi: 4.10
- smilesText: "NC(=O)c1nc2c(=O)[nH]c3cc(Cl)ccc3n2n1"
  pKi: 5.14
- smilesText: "CCOC(=O)c1nc2c(O)nc3cc(Br)ccc3n2n1"
  pKi: 5.59
- smilesText: "O=C(O)c1nc2c(O)nc3cc(Cl)ccc3n2n1"
  pKi: 6.77

A: COC(=O)CNC(=O)c1nc2c(=O)[nH]c3cc(Cl)ccc3n2n1
B: O=C(O)CNC(=O)c1nc2c(O)nc3cc(Cl)ccc3n2n1
Lab note: record which item had the higher pKi, A or B . In your reply, give the label of the chosen option. A

I: O=C(O)c1nc2c(=O)[nH]c3cc(Br)ccc3n2n1
II: O=C(O)c1nc2c(=O)[nH]c3cc(Cl)cc(Cl)c3n2n1
Higher pKi: I or II ? Mark your answer with the label of the selected entry. II
(II: 6.85, I: 6.41)

* * *

Target: Glutamate receptor ionotropic, NMDA 1 (Rattus norvegicus)
Assay: Functional antagonism at the NMDA receptor-ion channel complex was demonstarted by the ability to inhibit the binding of the channel-blocking agent [3H](+)-MK-801
metricName: EC50 (nM)
Expressed in nM, but write only the number.

Reported EC50 of O=C(O)c1nc2c(=O)[nH]c3cc(Cl)c(Cl)cc3n2n1 : 300

* * *

Target: Glutamate receptor ionotropic, NMDA 1 (Rattus norvegicus, UniProt P35439)
Experiment: Functional antagonism at the N-methyl-D-aspartate glutamate receptor 1 was demonstarted by the ability to inhibit the binding of the channel-blocking agent [3H](+)-MK-801
metricName: EC50 (µM)

- smilesText: "CCOC(=O)c1nc2c(O)nc3ccccc3n2n1"
  EC50 [µM]: 69
- smilesText: "O=C(O)c1nc2c(=O)[nH]c3cc([N+](=O)[O-])ccc3n2n1"
  EC50 [µM]: 7.8
- smilesText: "O=C(O)c1nc2c(O)nc3cc(Cl)ccc3n2n1"
  EC50 [µM]: 2.9
- smilesText: "O=C(O)c1nc2c(=O)[nH]c3cc(Br)ccc3n2n1"
  EC50 [µM]: 3.7

A: O=C(O)c1nc2c(O)nc3cc(C(F)(F)F)ccc3n2n1
B: CCOC(=O)c1nc2c(O)nc3cc(Cl)ccc3n2n1
C: O=C(O)c1nc2c(=O)[nH]c3ccccc3n2n1
D: O=C(O)c1nc2c(=O)[nH]c3cc(Cl)cc(Cl)c3n2n1
Highest EC50 first, then in falling order down to the smallest. Put the labels in the requested order and write them down. B, C, A, D
(B: 22.1 µM, C: 4.9 µM, A: 3.18 µM, D: 1.35 µM)
